Target: EGFR^L858R (Homo sapiens, UniProt P00533, L858R)
Sequence (P00533 25-1210 L858R): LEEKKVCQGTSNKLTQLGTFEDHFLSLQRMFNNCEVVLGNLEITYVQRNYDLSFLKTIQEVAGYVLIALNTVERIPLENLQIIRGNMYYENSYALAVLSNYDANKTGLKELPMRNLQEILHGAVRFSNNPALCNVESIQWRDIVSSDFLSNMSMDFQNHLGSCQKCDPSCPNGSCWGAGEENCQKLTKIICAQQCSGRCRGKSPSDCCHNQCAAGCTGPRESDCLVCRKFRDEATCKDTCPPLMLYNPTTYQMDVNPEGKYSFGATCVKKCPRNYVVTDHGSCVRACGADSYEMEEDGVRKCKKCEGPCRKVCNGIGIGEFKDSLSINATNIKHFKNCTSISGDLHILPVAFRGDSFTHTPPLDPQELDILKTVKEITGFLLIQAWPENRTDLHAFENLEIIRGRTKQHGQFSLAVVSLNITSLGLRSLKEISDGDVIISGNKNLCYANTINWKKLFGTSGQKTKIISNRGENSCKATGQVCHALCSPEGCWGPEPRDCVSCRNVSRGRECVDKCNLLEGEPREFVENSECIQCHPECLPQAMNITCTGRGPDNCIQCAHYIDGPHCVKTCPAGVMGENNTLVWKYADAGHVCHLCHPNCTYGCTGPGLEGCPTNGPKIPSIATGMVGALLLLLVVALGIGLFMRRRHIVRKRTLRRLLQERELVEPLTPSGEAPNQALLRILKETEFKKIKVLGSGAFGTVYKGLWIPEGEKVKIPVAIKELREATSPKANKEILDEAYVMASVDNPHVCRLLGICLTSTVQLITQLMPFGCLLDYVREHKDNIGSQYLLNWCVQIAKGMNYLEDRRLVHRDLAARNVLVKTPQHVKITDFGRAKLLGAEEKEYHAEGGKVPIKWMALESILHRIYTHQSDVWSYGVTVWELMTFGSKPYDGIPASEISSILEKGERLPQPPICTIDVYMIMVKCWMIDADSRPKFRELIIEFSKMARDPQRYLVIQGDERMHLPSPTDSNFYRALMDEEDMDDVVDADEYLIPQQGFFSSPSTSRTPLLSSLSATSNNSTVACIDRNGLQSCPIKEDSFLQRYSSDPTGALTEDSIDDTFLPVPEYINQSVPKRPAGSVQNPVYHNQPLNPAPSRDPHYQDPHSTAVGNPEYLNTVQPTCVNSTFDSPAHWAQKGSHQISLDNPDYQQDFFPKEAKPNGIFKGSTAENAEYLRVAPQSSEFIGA
Test: in vitro kinase assay (HTRF KinEASE-TK kit), L
Conditions: kinase inhibition
pIC50: −log10 of the molar value.
Recorded Endpoint: pIC50

Ask | Please give the documented pIC50 of C[C@H]1CCOc2c(cnn2C)-c2nccc(n2)Nc2cc3c(cn2)c(-c2cccc(CN4CCN(C)CC4)c2)nn31
Reply | > 8.00

Ask | Check the records and state pIC50 for C[C@H]1CCOc2c(cnn2C)-c2nccc(n2)Nc2cc3c(cn2)c(-c2cnn(CCN4CCOCC4)c2)nn31
Reply | 7.00 to 8.00

Ask | Answer with the recorded pIC50 for the molecule listed here: CCn1c(CN(C)C)ccc1-c1nn2c3cc(ncc13)Nc1ccnc(n1)-c1cnn(C)c1OCC[C@@H]2C
Reply | > 8.00

Ask | Please list pIC50 recorded for the molecule CCn1cc(CN2CCN(C)CC2)cc1-c1nn2c3cc(ncc13)Nc1ccnc(n1)-c1cnn(C)c1OCCC2C (centres unmarked)
Reply | 6.00 to 7.00

Ask | Return pIC50 (reported value) for this molecule: CC1COc2c(cnn2C)-c2nccc(n2)Nc2cc3c(cn2)c(N2CCC2)nn3C1 (centres unmarked)
Reply | 7.00 to 8.00

Ask | Give the reported value of pIC50 for this record: CCN1CCC(Oc2cc(F)cc(-c3nn4c5cc(ncc35)Nc3ccnc(n3)-c3cnn(C)c3OCC[C@@H]4C)c2)CC1
Reply | 7.00 to 8.00

Ask | Tell us which pIC50 value is on record for C[C@H]1CCOc2c(cnn2C)-c2nccc(n2)Nc2cc3c(cn2)c(N2CC[C@@H](CN(C)CCF)C2)nn31
Reply | > 8.00

Ask | Assign pIC50 to the following record: C[C@H]1CCOc2c(cnn2C)-c2nccc(n2)Nc2cc3c(cn2)c(N2CCOCC2)nn31
Reply | 7.00 to 8.00

---

Target: Ba/F3 EGFR-Del19/C797S (Homo sapiens, UniProt P00533, C797S, cells depend on it, form not given)
Sequence (P00533 with tags, fused parts or gaps DEL746-750/C797S, form open): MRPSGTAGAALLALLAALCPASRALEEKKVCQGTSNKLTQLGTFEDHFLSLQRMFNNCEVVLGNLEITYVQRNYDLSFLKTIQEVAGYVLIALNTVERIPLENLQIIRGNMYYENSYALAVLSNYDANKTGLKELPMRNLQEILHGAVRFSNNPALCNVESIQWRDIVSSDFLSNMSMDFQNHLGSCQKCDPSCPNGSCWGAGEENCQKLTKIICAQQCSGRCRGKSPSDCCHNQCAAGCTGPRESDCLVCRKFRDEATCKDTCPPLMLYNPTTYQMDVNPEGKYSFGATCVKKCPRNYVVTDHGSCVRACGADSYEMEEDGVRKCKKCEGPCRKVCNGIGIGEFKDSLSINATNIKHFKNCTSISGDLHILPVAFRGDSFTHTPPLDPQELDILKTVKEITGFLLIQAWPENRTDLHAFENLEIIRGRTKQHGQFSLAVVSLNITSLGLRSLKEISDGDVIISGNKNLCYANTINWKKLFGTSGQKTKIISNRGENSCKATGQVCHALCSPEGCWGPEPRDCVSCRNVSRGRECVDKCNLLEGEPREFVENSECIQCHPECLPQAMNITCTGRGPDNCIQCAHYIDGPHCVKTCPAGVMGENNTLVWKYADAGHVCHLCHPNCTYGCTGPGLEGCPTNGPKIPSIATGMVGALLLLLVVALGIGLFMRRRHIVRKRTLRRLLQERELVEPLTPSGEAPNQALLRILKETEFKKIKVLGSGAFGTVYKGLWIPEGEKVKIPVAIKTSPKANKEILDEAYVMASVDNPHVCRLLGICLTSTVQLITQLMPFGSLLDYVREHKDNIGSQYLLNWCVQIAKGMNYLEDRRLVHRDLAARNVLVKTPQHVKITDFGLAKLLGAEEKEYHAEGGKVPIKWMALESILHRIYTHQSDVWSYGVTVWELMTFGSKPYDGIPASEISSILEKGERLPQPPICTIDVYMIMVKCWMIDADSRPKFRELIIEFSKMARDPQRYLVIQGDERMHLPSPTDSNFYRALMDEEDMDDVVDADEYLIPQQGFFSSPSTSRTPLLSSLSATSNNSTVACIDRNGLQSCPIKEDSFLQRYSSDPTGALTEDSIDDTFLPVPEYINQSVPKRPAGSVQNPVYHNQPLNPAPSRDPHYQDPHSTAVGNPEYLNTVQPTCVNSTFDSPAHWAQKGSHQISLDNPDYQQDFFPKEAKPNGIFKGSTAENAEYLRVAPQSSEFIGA
Experiment: Ba/F3 viability assay (CellTiter-Glo), DC
Assay type: cell-based
Conditions: anti-proliferation, read-out: BaF3 DC IC50
Overview of recorded GI50 for various molecules

molecule="CC1CCOc2c(cnn2C)-c2nccc(n2)Nc2cc3c(cn2)c(-c2ccc(CN4CCN(C)CC4)o2)nn31 (stereo not drawn) [(63)]" val="< 10 nM"
molecule="C[C@H]1CCOc2c(cnn2C)-c2nccc(n2)Nc2cc3c(cn2)c(-c2cccc(N4CC[C@H](N(C)C)C4)c2)nn31 [(167)]" val="< 10 nM"

Ask | Quote GI50 reported for C[C@H]1CCOc2c(cnn2C)-c2nccc(n2)Nc2cc3c(cn2)c(-c2cc(CN4CCN(C)CC4)n(C)c2)nn31 [(144)] please.
Reply | < 10 nM

Ask | Let me know recorded GI50 for C[C@H]1CCOc2c(cnn2C)-c2nccc(n2)Nc2cc3c(cn2)c(-c2ccc(CN4CCN(CCF)CC4)n2C)nn31 [(193)] , thanks.
Reply | < 10 nM

Ask | # return recorded GI50 for input CC(C)N1CCN(Cc2csc(-c3nn4c5cc(ncc35)Nc3ccnc(n3)-c3cnn(C)c3OCC[C@@H]4C)n2)CC1 [(118)]
Reply | 100 to 1000 nM

Ask | Answer with the recorded GI50 of CCCN1CCN(Cc2ccc(-c3nn4c5cc(ncc35)Nc3ccnc(n3)-c3cnn(C)c3OCC[C@@H]4C)n2C)CC1 [(135)] only.
Reply | < 10 nM

Ask | Indicate the recorded GI50 value for this molecule: C[C@H]1CCOc2c(cnn2C)-c2nccc(n2)Nc2cc3c(cn2)c(-c2cn(C)cn2)nn31 [(114)]
Reply | 10 to 100 nM

Ask | Identify the reported GI50 for the following entry. C[C@H]1CCOc2c(cnn2C)-c2nccc(n2)Nc2cc3c(cn2)c(-c2cnn(CCN(C)C)c2)nn31 [(102)]
Reply | 10 to 100 nM

Ask | Give GI50 for the following molecule: CN1CCN(CC2CCCN2c2nn3c4cc(ncc24)Nc2ccnc(n2)-c2cnn(C)c2OCCC3)CC1 (stereo not drawn) [(10)]
Reply | 100 to 1000 nM
